test system: Methionine sulfoxide reductase A (Bos taurus); experiment: bovine MsrA inhibitors, retest, confirmation, biochemical, absorbance, HTS (AID 651822); settings: purified bovine MsrA, absorbance read-out; at 15.5 µM; active compounds read high;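 further: coupled to thioredoxin reductase with NADPH and selenocystamine and DMSO as substrate; 0% = vehicle only and 100% = full effect of reference inhibitor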
The campaign covered roughly 2,300 compounds. About 970 (42%) were called active. The set was probably picked from earlier hits. The list is a sample of the results.
Class key for inhibition values: bin 0 (below 4%), bin 1 (4% to below 6%), bin 2 (6% or more)

Below are worked cases with known answers.
- S=c1[nH]nc(-c2ccccc2)n1/N=C/c1c[nH]c2ccccc12: bin 0
- COc1ccc(C(=O)CSc2nc(C)cc(C)n2)cc1[N+](=O)[O-]: bin 2
- C(=N/Nc1cc(N2CCOCC2)nc(N2CCOCC2)n1)/c1ccccc1: bin 0
- COc1ccc(/C=C/C(=O)Nc2cccnc2)cc1OC: bin 1
- Cc1ccc(/C=N/NC(=S)NC2CCCCC2)o1: bin 1

### Prompt Please let me know in which category the item COc1ccccc1-c1n[nH]c2c1[C@H](C)CC[C@H]2C(C)C belongs.
### Response bin 2

### Prompt Please let me know in which category the item O=C(N/N=C/C=C/c1ccco1)c1cccs1 belongs.
### Response bin 2

### Prompt Please let me know in which category the item Cc1cc(C(=O)N/N=C/c2ccc(N3CCOCC3)cc2)c(C)o1 belongs.
### Response bin 0

### Prompt Please let me know in which category the item CCCc1nc(SCC(=O)N2CCCC2)c2c(=O)n(C)c(=O)n(C)c2n1 belongs.
### Response bin 1

### Prompt Please let me know in which category the item CC(=O)N1N=C(c2ccncc2)OC1(Cc1ccccc1)Cc1ccccc1 belongs.
### Response bin 2

### Prompt Please let me know in which category the item CCOc1cc(/C=N/NC(=O)c2c(C)nc3ccc(Cl)cn23)ccc1O belongs.
### Response bin 1

### Prompt Please let me know in which category the item O=C(O)c1ccc(N/N=C/c2cn(-c3ccccc3)nc2-c2cccs2)cc1 belongs.
### Response bin 1

### Prompt Please let me know in which category the item Cc1cc(C(=O)N/N=C/c2ccc(O)c([N+](=O)[O-])c2)c(C)n1-c1ccc(F)cc1 belongs.
### Response bin 1
